Exercise: for every item that follows, state its recorded % Inhibition of Apyrase.
test system: apyrase; assay: Screen for apyrase inhibitors (Method 1, in vitro phosphate-release absorbance assay); assay type: biochemical; conditions: inhibitor conc at 1 mM stock, 1 hr room temperature, absorbance 630 nm; rounded average of two assay results
# value in %; strip the unit string

Look up % Inhibition of Apyrase with apyrase for this compound: COC(=O)C1(c2ccc(Br)cc2)CCN(C(=O)c2cccc(S(=O)(=O)Nc3ccc(Br)cc3)c2)C1 (stereo not shown)
57

"O=C(Nc1cccc([N+](=O)[O-])c1)c1ccc(Br)c(S(=O)(=O)Nc2ccc(Br)cc2)c1" , same question.
38

"N#Cc1cccc(NC(=O)c2cccc(NS(=O)(=O)c3ccc(Cl)c(Cl)c3)c2)c1" , same question.
69

"Cc1csc(NC(=O)c2cccc(NS(=O)(=O)c3ccc4c(c3)OCCCO4)c2)n1" , same question.
50
